Recorded values, source patent US20240051985A1.

pIC50 by entry:
# target-or-system: FLT3 (Homo sapiens, UniProt P36888)
# Sequence (P36888 27-993, species assumed): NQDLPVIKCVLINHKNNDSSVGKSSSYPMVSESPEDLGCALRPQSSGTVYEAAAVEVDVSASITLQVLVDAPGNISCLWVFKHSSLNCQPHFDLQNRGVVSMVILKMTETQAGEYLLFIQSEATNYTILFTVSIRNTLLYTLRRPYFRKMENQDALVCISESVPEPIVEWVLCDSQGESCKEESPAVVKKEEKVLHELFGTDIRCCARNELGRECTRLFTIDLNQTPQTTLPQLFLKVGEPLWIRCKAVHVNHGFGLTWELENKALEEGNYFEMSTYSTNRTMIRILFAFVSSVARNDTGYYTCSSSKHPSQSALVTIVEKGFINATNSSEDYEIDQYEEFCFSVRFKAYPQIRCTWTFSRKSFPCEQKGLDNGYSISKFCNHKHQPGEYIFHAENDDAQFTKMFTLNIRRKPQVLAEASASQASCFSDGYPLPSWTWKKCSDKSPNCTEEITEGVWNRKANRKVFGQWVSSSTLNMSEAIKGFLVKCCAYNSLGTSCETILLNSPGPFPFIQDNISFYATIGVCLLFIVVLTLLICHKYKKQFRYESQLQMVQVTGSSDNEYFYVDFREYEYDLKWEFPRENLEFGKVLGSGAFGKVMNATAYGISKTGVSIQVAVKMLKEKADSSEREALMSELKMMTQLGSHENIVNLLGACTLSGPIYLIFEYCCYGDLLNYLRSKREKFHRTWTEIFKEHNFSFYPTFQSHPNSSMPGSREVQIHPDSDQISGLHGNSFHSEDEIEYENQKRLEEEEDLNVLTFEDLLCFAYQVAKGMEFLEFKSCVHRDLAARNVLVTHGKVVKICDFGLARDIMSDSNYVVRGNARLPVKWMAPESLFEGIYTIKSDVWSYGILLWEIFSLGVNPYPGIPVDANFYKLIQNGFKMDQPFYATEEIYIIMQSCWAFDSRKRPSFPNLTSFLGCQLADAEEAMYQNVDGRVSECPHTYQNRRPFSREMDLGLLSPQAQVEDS
# assay-protocol: FLT3 LanthaScreen assay
# Assay type: biochemical
# experimental-conditions: Table 4
pIC50: −log10 of the molar value.

See these solved cases before continuing.
# molecule, target-or-system, pIC50
data = [
    ("CN1CCC[C@@H](NC(=O)[C@H]2O[C@@H](n3cc(-c4ccn(C)n4)c4c(N)ncnc43)[C@H](O)[C@@H]2O)C1 [Compound I-46]", "FLT3 (Homo sapiens, UniProt P36888)", "≤ 6.00"),
    ("Cn1ccc(-c2cn([C@@H]3O[C@H](C(=O)NC4CC5(CNC5)C4)[C@@H](O)[C@H]3O)c3ncnc(N)c23)n1 [Compound I-210]", "FLT3 (Homo sapiens, UniProt P36888)", "≤ 6.00"),
]

Consider the record given below.
Query Cn1ccc(-c2cn([C@@H]3O[C@H](C(=O)N[C@H]4CCCNC4)[C@@H](O)[C@H]3O)c3ncnc(N)c23)n1 [Compound I-219] on FLT3 (Homo sapiens, UniProt P36888); pIC50 returned: ≤ 6.00
